# System: K562
# protocolNotes: Cytotoxicity against human K562 cells after 72 hrs by MTT assay
# Format: functional, cell-based
# conditionLabel: K562, 72 h
measuredAttribute: pIC50
One number for each entry, as −log10 of the molar value.

These recorded examples may help you get a feel for the data.
[[record]]
itemsmiles = "CCN(CC)CCCNc1nc2c(Nc3ccc(Cl)cc3)c3ccccc3nc2s1"
measuredattribute = "pIC50"
val = 5.47

[[record]]
itemsmiles = "COc1ccc(Nc2c3cc(F)ccc3nc3sc(SC)nc23)cc1"
measuredattribute = "pIC50"
val = 4.26


# input for lookup
Ask | // fetch K562 pIC50 for CCN(CC)CCCNc1nc2c(Nc3cccc(Cl)c3)c3ccccc3nc2s1
Reply | 5.01

Numbers sourced from ChEMBL document CHEMBL1139240.
